System: T-47D breast
Run Description: NCI tumour cell line growth inhibition, 48 h
Measurement Label: TGI

// field: TGI; key: "CO/N=C(\COc1ccc2c(c1)oc(=O)c1cc(OC)ccc12)c1ccc(OC)cc1" ; value = > 100 µM

// field: TGI; key: "COc1ccc(C(=O)/C=C/c2cc(-c3cc(OC)c(OC)c(OC)c3)n[nH]2)cc1OC" ; value = 4.36 µM

// field: TGI; key: "CC(=O)c1[nH]c(NCc2ccccc2)c(C(=S)Nc2ccccc2)c1N" ; value = 63.3 µM

// field: TGI; key: "C=C(C)[C@@H]1CC[C@]2(C)[C@H](CC=C3[C@@H]4CC(C)(C)CC[C@]4(C(N)=O)CC[C@]32C)[C@@]1(C)CCC#N" ; value = > 100 µM

// field: TGI; key: CC(CO)(CO)N1C(=O)C2C3C=CC(C3)C2C1=O (stereo not given) ; value = > 100 µM
